target: SHP2 protein (Homo sapiens, UniProt Q06124); assay: Measurement of SHP2 protein degradation in MV-4-11 cells (western blotting); assay type: cell-based; parameters: endogenous in cells; host or cells: MV-4-11; conditions: MV-4-11 cells, 10 nM, 24 hours
Measure Name: SHP2 degradation (%) 10 nM

>>> recorded_number("CC(=O)N[C@H](C(=O)N1C[C@H](O)C[C@H]1C(=O)NCc1ccc(-c2scnc2C)cc1OCCCC1CCN(C(=O)CC(=O)Nc2cccc(Sc3cnc(N4CCC(C)(CN)CC4)cn3)c2Cl)CC1)C(C)(C)C [Example 43]")
80.0
>>> recorded_number("Cc1ncsc1-c1ccc(CNC(=O)[C@@H]2C[C@@H](O)CN2C(=O)[C@@H](NC(=O)C2CC2)C(C)(C)C)c(OCCN2CCN(C(=O)CC(=O)Nc3cccc(Sc4cnc(N5CCC(C)(CN)CC5)cn4)c3Cl)CC2)c1 [Example 56]")
91.4

1 = Cc1ncsc1-c1ccc(CNC(=O)[C@@H]2C[C@@H](O)CN2C(=O)[C@@H](NC(=O)C2(F)CC2)C(C)(C)C)c(OCCCCN2CCN(CC(=O)Nc3cccc(Sc4cnc(N5CCC(C)(CN)CC5)cn4)c3Cl)C(=O)C2)c1 [Example 78]
2 = Cc1ncsc1-c1ccc(CNC(=O)[C@@H]2C[C@@H](O)CN2C(=O)[C@@H](NC(=O)C2(F)CC2)C(C)(C)C)c(OCCN2CCN(CC(=O)Nc3cccc(Sc4cnc(N5CCC(C)(CN)CC5)cn4)c3Cl)CC2)c1 [Example 72]
# compare SHP2 degradation (%) 10 nM for 1 vs 2 ; return the one with the smaller value Answer by quoting the chosen item's label.
2

###

target: SHP2 protein (Homo sapiens); experiment: Measurement of SHP2 protein degradation in KYSE-520 cells (western blotting); assay type: cell-based; design: endogenous in cells; conditions: 100 nM, 24 hours
Measure Name: SHP2 degradation (%) 100 nM

>>> recorded_number("Cc1ncsc1-c1ccc(CNC(=O)[C@@H]2C[C@@H](O)CN2C(=O)[C@@H](NC(=O)C2(F)CC2)C(C)(C)C)c(OCCN2CCC(CCCC(=O)Nc3cccc(Sc4cnc(N5CCC(C)(CN)CC5)cn4)c3Cl)CC2)c1 [Example 16]")
45.1
>>> recorded_number("Cc1ncsc1-c1ccc(CNC(=O)[C@@H]2C[C@@H](O)CN2C(=O)[C@@H](NC(=O)C2(F)CC2)C(C)(C)C)c(OCCCCCCN2CCC(CCCC(=O)Nc3cccc(Sc4cnc(N5CCC(C)(CN)CC5)cn4)c3Cl)CC2)c1 [Example 18]")
56.9
>>> recorded_number("Cc1ncsc1-c1ccc(CNC(=O)[C@@H]2C[C@@H](O)CN2C(=O)[C@@H](NC(=O)C2(F)CC2)C(C)(C)C)c(OCCCCCCCCN2CCC(C(=O)Nc3cccc(Sc4cnc(N5CCC(C)(CN)CC5)cn4)c3Cl)CC2)c1 [Example 4]")
60.7
>>> recorded_number("Cc1ncsc1-c1ccc(CNC(=O)[C@@H]2C[C@@H](O)CN2C(=O)[C@@H](NC(=O)C2(F)CC2)C(C)(C)C)c(OCCCC(=O)N2CCC(CC(=O)Nc3cccc(Sc4cnc(N5CCC(C)(CN)CC5)cn4)c3Cl)CC2)c1 [Example 23]")
44.3
>>> recorded_number("Cc1ncsc1-c1ccc(CNC(=O)[C@@H]2C[C@@H](O)CN2C(=O)[C@@H](NC(=O)C2(F)CC2)C(C)(C)C)c(OCCCCCCN2CCC(C(=O)Nc3cccc(Sc4cnc(N5CCC(C)(CN)CC5)cn4)c3Cl)CC2)c1 [Example 3]")
48.8
>>> recorded_number("Cc1ncsc1-c1ccc(CNC(=O)[C@@H]2C[C@@H](O)CN2C(=O)[C@@H](NC(=O)C2(F)CC2)C(C)(C)C)c(OCCN2CCC(CC(=O)Nc3cccc(Sc4cnc(N5CCC(C)(CN)CC5)cn4)c3Cl)CC2)c1 [Example 5]")
56.7
>>> recorded_number("Cc1ncsc1-c1ccc(CNC(=O)[C@@H]2C[C@@H](O)CN2C(=O)[C@@H](NC(=O)C2(F)CC2)C(C)(C)C)c(OCCCC(=O)N2CCC(C(=O)Nc3cccc(Sc4cnc(N5CCC(C)(CN)CC5)cn4)c3Cl)CC2)c1 [Example 21]")
51.7
>>> recorded_number("Cc1ncsc1-c1ccc(CNC(=O)[C@@H]2C[C@@H](O)CN2C(=O)[C@@H](NC(=O)C2(F)CC2)C(C)(C)C)c(OCCCC(=O)N2CCC(CCCC(=O)Nc3cccc(Sc4cnc(N5CCC(C)(CN)CC5)cn4)c3Cl)CC2)c1 [Example 25]")
61.8
>>> recorded_number("Cc1ncsc1-c1ccc(CNC(=O)[C@@H]2C[C@@H](O)CN2C(=O)[C@@H](NC(=O)C2(F)CC2)C(C)(C)C)c(OCCCCN2CCC(CCC(=O)Nc3cccc(Sc4cnc(N5CCC(C)(CN)CC5)cn4)c3Cl)CC2)c1 [Example 15]")
58.3
